Molecular target: T1, interleukin-23 receptor (IL-23R), Q5VWK5
T1 chain: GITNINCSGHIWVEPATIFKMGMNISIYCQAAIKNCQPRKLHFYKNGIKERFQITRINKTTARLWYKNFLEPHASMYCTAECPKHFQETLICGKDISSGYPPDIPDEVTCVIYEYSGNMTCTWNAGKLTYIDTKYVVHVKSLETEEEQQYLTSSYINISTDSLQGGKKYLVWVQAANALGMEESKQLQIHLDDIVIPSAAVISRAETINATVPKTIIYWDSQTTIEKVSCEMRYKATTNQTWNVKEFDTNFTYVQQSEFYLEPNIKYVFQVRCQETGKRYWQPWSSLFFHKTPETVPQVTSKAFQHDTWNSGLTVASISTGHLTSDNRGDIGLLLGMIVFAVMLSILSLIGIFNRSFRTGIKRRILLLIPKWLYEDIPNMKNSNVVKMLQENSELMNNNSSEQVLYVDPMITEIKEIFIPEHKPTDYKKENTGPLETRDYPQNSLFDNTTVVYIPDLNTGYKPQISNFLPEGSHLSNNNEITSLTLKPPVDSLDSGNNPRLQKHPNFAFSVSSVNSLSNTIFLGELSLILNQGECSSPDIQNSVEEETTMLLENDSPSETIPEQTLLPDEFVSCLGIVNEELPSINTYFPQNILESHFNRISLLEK
Experiment: cell-based or functional assay
Starred links: 1 amine or outer side, 2 acyl side, 3 side chain; linkers in the order of their positions; H or OH if unused. Positions of bridges follow the written chain, without caps; N, C: chain ends. Non-standard residues stand in square brackets, D forms with d. No end group written: not given here. X3 = 4‑(2-(4-(2-amino-2-carboxyethyl)phenoxy)ethyl)‑4‑methylmorpholin‑4‑ium, C[N+]1(CCOc2ccc(CC(N[*:1])C(=O)[*:2])cc2)CCOCC1; X10 = 2‑amino‑3‑(4-(2-guanidinoethoxy)phenyl)propanoic acid, N=C(N)NCCOc1ccc(CC(N[*:1])C(=O)[*:2])cc1; 2Nal(6-OH) = N[C@@H](Cc1ccc2cc(O)ccc2c1)C(=O)O; Trp(7-Me) = Cc1cccc2c(C[C@H](N)C(=O)O)c[nH]c12; AEF = NCCOc1ccc(C[C@H](N)C(=O)O)cc1; 3Pal = N[C@@H](Cc1cccnc1)C(=O)O; Pen = CC(C)(S)[C@H](N)C(=O)O; αMeC = C[C@](N)(CS)C(=O)O; lipid = not defined here; Thp = NC1(C(=O)O)CCOCC1; Abu = CC[C@H](N)C(=O)O; Sar = CNCC(=O)O
Recorded measurements of PBMC pSTAT3 IC50, one per entry

# PBMC pSTAT3 IC50 (binder: R[Abu]NTWK(Ac)[αMeC][X10][2Nal(6-OH)][Thp]K(Ac)N[3Pal][Sar] (ends and bridges not checked) [SEQ ID NO: 7] ) is < 0.1 nM

Data point: [Pen]NT[Trp(7-Me)]K(Ac)[Pen][X3][2Nal(6-OH)][Thp]EN[3Pal][Sar] (disulfide 1-6 (inferred); ends not checked) [SEQ ID NO: 56] ; PBMC pSTAT3 IC50 = < 10 pM

Sample K(lipid)[Pen]NT[Trp(7-Me)]K(Ac)[Pen][AEF][2Nal(6-OH)][Thp]EN[3Pal][Sar] (disulfide 2-7 (inferred); ends not checked; also: Lys1 lipidated, lipid not given here) [SEQ ID NO: 229] ; PBMC pSTAT3 IC50 observed: < 1 nM

// sample R[Pen]NT[Trp(7-Me)]K(Ac)[Pen][X3][2Nal(6-OH)][Thp]EN[3Pal][Sar] (not fully specified (bridges); ends and bridges not checked) [SEQ ID NO: 77] , its PBMC pSTAT3 IC50 was < 10 pM

# credit: patent US20240279281A1
